test: ATG_GLI_CIS: Attagene CIS-FACTORIAL HepG2 Assay for human Zinc Finger Protein GLI1 (AID 2282945); conditions: HepG2, Attagene cis-factorial reporter mRNA, GLI element; actives raise or lower the signal
Calls of active or inactive are those of the source. How the source made its calls: active means hit-call score of the fitted dose curve at least 0.9, where 1 is the maximum; inactive means score below 0.9.
I would appreciate it if you answered using one of these outcomes: TRUE (active), FALSE (inactive)

Study these solved cases before continuing.
[
  {
    "molecule": "O=NN1CCOCC1",
    "answerLabel": "FALSE"
  },
  {
    "molecule": "CC(C)CC(C)(c1ccc(O)cc1)c1ccc(O)cc1",
    "answerLabel": "FALSE"
  },
  {
    "molecule": "CCOP(=S)(OCC)SCS(=O)(=O)C(C)(C)C",
    "answerLabel": "FALSE"
  },
  {
    "molecule": "O=[N+]([O-])c1ccc(Cl)c([N+](=O)[O-])c1",
    "answerLabel": "FALSE"
  }
]

Q) // outcome(item) with item = `O=C=Nc1ccc(Cl)cc1`
A) FALSE

Q) // outcome(item) with item = `COc1ccc([N+](=O)[O-])cc1O`
A) FALSE

* * *

assay: CCTE_Shafer_MEA_dev_network_spike_peak: CCTE's Neural Network Formation Assay for Mean Number of Electrodes in Network Spike, Shafer Lab (AID 2284049)
Activity calls are given as the source filed them. How the source made its calls: active means hit-call score of the fitted dose curve at least 0.9, where 1 is the maximum; inactive means score below 0.9.
I would appreciate it if you answered using one of these outcomes: active, inactive

Study these solved cases before continuing.
[
  {
    "compound": "Cc1cc(C(F)(C(F)(F)F)C(F)(F)F)ccc1NC(=O)c1cccc(I)c1C(=O)NC(C)(C)CS(C)(=O)=O",
    "answerLabel": "active"
  },
  {
    "compound": "FC(F)OCC(F)(F)C(F)(F)F",
    "answerLabel": "inactive"
  },
  {
    "compound": "CCOCn1c(-c2ccc(Cl)cc2)c(C#N)c(Br)c1C(F)(F)F",
    "answerLabel": "active"
  },
  {
    "compound": "NC(=O)c1ccc(N)nc1",
    "answerLabel": "active"
  },
  {
    "compound": "O=S(=O)(F)C(F)(F)C(F)(F)C(F)(F)C(F)(F)F",
    "answerLabel": "inactive"
  },
  {
    "compound": "CC1(C)[C@H](C(=O)O[C@H](C#N)c2cccc(Oc3ccccc3)c2)[C@@H]1/C=C(\\Cl)C(F)(F)F",
    "answerLabel": "active"
  },
  {
    "compound": "C=CC(F)(C(F)(F)F)C(F)(F)C(F)(F)F (stereo not given)",
    "answerLabel": "inactive"
  },
  {
    "compound": "Cc1ccccc1OP(=O)(Oc1ccccc1C)Oc1ccccc1C",
    "answerLabel": "active"
  }
]

Q) // outcome(item) with item = `CC(=O)C(F)(F)C(F)(F)F`
A) inactive

Q) // outcome(item) with item = `CC(F)(F)CC(F)(F)F`
A) inactive

* * *

assay: ATG_DR4_LXR_CIS: Attagene CIS-FACTORIAL HepG2 Assay for human Liver X Receptor (LXR), DR4 submotif (AID 2282929); conditions: HepG2 Attagene DR4 cis-reporter, mRNA transcription; actives raise or lower the signal
Calls of active or inactive are those of the source. The calls were made as follows: active = hit-call score of the fitted dose curve at least 0.9, where 1 is the maximum; inactive = score below 0.9.
assayReadout: AC50

Known AC50 results, listed for orientation:
[
  {
    "compound": "CCCCN(CCCCO)N=O",
    "reportedMeasurement": "inactive"
  },
  {
    "compound": "CCCCCCCCCCCCc1cccc(S(=O)(=O)O)c1",
    "reportedMeasurement": "30 µM (active)"
  },
  {
    "compound": "OC(c1ccc(Cl)cc1)(c1ccc(Cl)cc1)c1cccnc1",
    "reportedMeasurement": "11.1 µM (active)"
  },
  {
    "compound": "Cc1cc(C(F)(C(F)(F)F)C(F)(F)F)ccc1NC(=O)c1cccc(I)c1C(=O)NC(C)(C)CS(C)(=O)=O",
    "reportedMeasurement": "inactive"
  },
  {
    "compound": "CCCCCCCCCCCCCCC(Br)C(=O)O (configuration not stated)",
    "reportedMeasurement": "27.4 µM (active)"
  },
  {
    "compound": "ClCCCCl",
    "reportedMeasurement": "inactive"
  }
]

Please turn your attention to the following entry.
Looking up `CCOP(=S)(OCC)Oc1ccc(Cl)cc1Cl` , I see its AC50 listed as inactive

* * *

test: ATG_GLI_CIS: Attagene CIS-FACTORIAL HepG2 Assay for human Zinc Finger Protein GLI1 (AID 2282945); conditions: HepG2, Attagene cis-factorial reporter mRNA, GLI element; actives raise or lower the signal
Calls of active or inactive are those of the source. Rule for the calls: active = hit-call score of the fitted dose curve at least 0.9, where 1 is the maximum; inactive = score below 0.9.
I would appreciate it if you answered using one of these outcomes: active, inactive

[
  {
    "smilesEntry": "Nc1c(Oc2ccccc2)cc(O)c2c1C(=O)c1ccccc1C2=O",
    "answerLabel": "inactive"
  },
  {
    "smilesEntry": "O=C(Nc1ccc(Br)cc1)c1cc(Br)cc(Br)c1O",
    "answerLabel": "active"
  }
]

We now examine a further compound.
Q) // outcome(item) with item = `CC(C)(C)c1ccc(CCOc2ncnc3ccccc23)cc1`
A) inactive

* * *

Read-out: CD40, CD40 (gene 958)
Experiment: BSK_SAg_CD40: BioMAP Diversity Plus: SAg Assay for CD40 Biomarker Activity (AID 2283088)
Conditions: primary human HUVEC with PBMC; actives raise or lower the signal
Experimental: BSK_SAg is a cell-based, multiplexed-readout assay that uses umbilical vein endothelium and peripheral blood mononuclear cells, a human vascular primary cell co-culture, with measurements taken at 24 hours after chemical dosing in a 96-well plate.BSK_SAg_CD40 is one of 10 assay component(s) measured or calculated from the BSK_SAg assay. […] This assay endpoint, BSK_SAg_CD40, was analyzed with bidirectional fitting relative to DMSO as the negative control and baseline of activity. […]
The source made the active and inactive calls. Rule for the calls: active = hit-call score of the fitted dose curve at least 0.9, where 1 is the maximum; inactive = score below 0.9.
I would appreciate it if you answered using one of these outcomes: t = active, f = inactive

Study these solved cases before continuing.
[
  {
    "compound": "CCOP(=O)(OCC)SCCSCC",
    "answerLabel": "f"
  },
  {
    "compound": "O=c1oc2ccccc2c(O)c1C(CC(O)c1ccc(-c2ccc(Br)cc2)cc1)c1ccccc1 (stereo not given)",
    "answerLabel": "t"
  }
]

Q) // outcome(item) with item = `Nc1ccc(N)cc1`
A) f

Q) // outcome(item) with item = `COCC(=O)N(c1c(C)cccc1C)[C@H](C)C(=O)OC`
A) f

* * *

molecular target: Nuclear receptor subfamily 1 group I member 2 (Homo sapiens) (UniProt O75469); test: ATG_PXR_TRANS: Attagene TRANS-FACTORIAL HepG2 Assay for human Pregnane X Receptor (PXR) (AID 2283008)
Sequence (O75469 whole entry, looked up): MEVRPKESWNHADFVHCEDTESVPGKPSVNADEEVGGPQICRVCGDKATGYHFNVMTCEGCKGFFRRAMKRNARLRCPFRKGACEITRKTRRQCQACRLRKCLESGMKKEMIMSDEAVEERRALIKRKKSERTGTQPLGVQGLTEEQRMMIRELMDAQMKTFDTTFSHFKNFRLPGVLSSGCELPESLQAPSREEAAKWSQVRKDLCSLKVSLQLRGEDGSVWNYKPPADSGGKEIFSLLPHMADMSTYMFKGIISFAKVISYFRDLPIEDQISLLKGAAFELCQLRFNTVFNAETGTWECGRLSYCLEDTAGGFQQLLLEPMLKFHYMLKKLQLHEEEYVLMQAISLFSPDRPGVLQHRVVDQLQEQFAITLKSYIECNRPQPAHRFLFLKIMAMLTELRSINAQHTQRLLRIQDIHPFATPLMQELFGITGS
Results filed as inconclusive are left out. Calls of active or inactive are those of the source. How the source made its calls: active means hit-call score of the fitted dose curve at least 0.9, where 1 is the maximum; inconclusive means response in the unintended direction; inactive means score below 0.9.
I would appreciate it if you answered using one of these outcomes: TRUE for active, FALSE for inactive

Study these solved cases before continuing.
[
  {
    "molecule": "CC1CC(=O)O1 (stereo unspecified)",
    "answerLabel": "FALSE"
  },
  {
    "molecule": "CCCCOC(=O)COC(=O)c1ccccc1C(=O)OCCCC",
    "answerLabel": "TRUE"
  },
  {
    "molecule": "N#Cc1ccccc1Cl",
    "answerLabel": "FALSE"
  },
  {
    "molecule": "O=C(O)C1(c2ccc3c(c2)OC[C@H](Cc2ccc(-c4ccccc4)cc2)[C@H]3O)CCCC1",
    "answerLabel": "FALSE"
  },
  {
    "molecule": "N#CS",
    "answerLabel": "FALSE"
  },
  {
    "molecule": "CC(c1ccccc1)(c1ccc(O)cc1)c1ccc(O)cc1",
    "answerLabel": "TRUE"
  },
  {
    "molecule": "CC(C)(C)c1cc([N+](=O)[O-])cc(C(C)(C)C)c1O",
    "answerLabel": "TRUE"
  },
  {
    "molecule": "CCNc1nc(NCC)nc(SC)n1",
    "answerLabel": "FALSE"
  }
]

Q) // outcome(item) with item = `CCCCS(=O)(=O)Cl`
A) FALSE

Q) // outcome(item) with item = `C[As+](C)(C)CC(=O)[O-]`
A) FALSE

Q) // outcome(item) with item = CC(C)=CC1C(C(=O)OCc2cccc(Oc3ccccc3)c2)C1(C)C (stereo unspecified)
A) TRUE

* * *

read-out: Interferon-gamma inducible Protein 10 (IP10), CXCL10 (gene 3627); test: BSK_hDFCGF_IP10: BioMAP Diversity Plus: hDFCGF Assay for Interferon-gamma inducible Protein 10 (IP10) Biomarker Activity (AID 2283053); conditions: primary human foreskin fibroblasts; actives raise or lower the signal
Activity calls are given as the source filed them. Rule for the calls: active = hit-call score of the fitted dose curve at least 0.9, where 1 is the maximum; inactive = score below 0.9.
I would appreciate it if you answered using one of these outcomes: active, inactive

Study these solved cases before continuing.
[
  {
    "compound": "CCOP(=S)(OCC)SCS(=O)(=O)C(C)(C)C",
    "answerLabel": "inactive"
  },
  {
    "compound": "C#CCOC(=O)/C=C(C)/C=C/CC(C)CCCC(C)C (centres undefined)",
    "answerLabel": "inactive"
  },
  {
    "compound": "C[C@]12CC[C@@H](O)C[C@@H]1CC[C@@H]1[C@@H]2CC[C@]2(C)C(=O)CC[C@@H]12",
    "answerLabel": "inactive"
  },
  {
    "compound": "Cc1ccccc1OP(=O)(Oc1ccccc1C)Oc1ccccc1C",
    "answerLabel": "active"
  },
  {
    "compound": "O=C(N[C@H]1CN2CCC1CC2)c1ccc2c(c1)OCCO2",
    "answerLabel": "inactive"
  }
]

Q) // outcome(item) with item = `Cc1cc(C)cc(C)c1`
A) inactive

Q) // outcome(item) with item = `Cc1cc(Cl)ccc1N`
A) inactive

Q) // outcome(item) with item = `CCOC(=O)CCN(SN(C)C(=O)Oc1cccc2c1OC(C)(C)C2)C(C)C`
A) active

Q) // outcome(item) with item = C=CC(Cl)CCl (centres undefined)
A) inactive

Q) // outcome(item) with item = `CCCCN(CCCC)C(=S)[S-].CCCCN(CCCC)C(=S)[S-].[Ni+2]`
A) inactive

Q) // outcome(item) with item = `OCCCCO`
A) inactive
